B1: MLL5 (parent)
chain: DCMGIDRQHIPDTYLCERCQPRNL

Variants of: B1
method: protein stability index of a GFP-peptide fusion (GPS, HEK-293T) (PSI 1-6); higher = more stable;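 also: lentivirally expressed fusions sorted by FACS into six bins by GFP to DsRed ratio, PSI derived from sequencing read proportions per bin multiplied by bin number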
condition.parameters: c terminus: a fixed tail appended
Cut-off 3 on protein stability index, inclusive. At or above means class 1; below means class 0.

Exercise: Quick check, protein stability index >= 3? R22A
Solution: class 1

Exercise: Quick check, protein stability index >= 3? R22Q
Solution: class 1

Exercise: Can M3V be said to have protein stability index at or above 3?
Solution: class 0

Exercise: Reported protein stability index reaches at least 3 for L24Y ?
Solution: class 0

Exercise: Item R18M with protein stability index of 3 or above?
Solution: class 0

Exercise: Please check the record N23M and state if its protein stability index is at or above 3.
Solution: class 0

Exercise: Threshold query (protein stability index >= 3) on N23R
Solution: class 0

Exercise: I'd appreciate it if you could say whether M3T has protein stability index at least equal to 3.
Solution: class 0
